Recorded values, source paper PMC9358669.

This section presents compounds with their documented Mean (RFU/s) values.
- target_or_test_system: Chymotrypsin (Bos taurus)
- Construct: purchased Sigma-Aldrich
- method_notes: Chymotrypsin inhibition, fluorogenic substrate assay (Suc-Ala-Ala-Pro-Phe-AMC)
- Assay type: biochemical
- condition_parameters: Chymotrypsin; inhibitor concentration 0.152416 nM; 40 min pre-incubation
Your reply should be a number followed by the unit it is expressed in.

Example results:
| compound | Mean (RFU/s) |
| --- | --- |
| CC=C1NC(=O)[C@@H](NC(=O)[C@@H](NC(=O)[C@@H]2CCCN2C(=O)CCC)[C@@H](C)O)[C@@H](C)OC(=O)[C@H](C(C)C)NC(=O)[C@H](Cc2ccc(O)cc2)N(C)C(=O)[C@H](Cc2ccccc2)N2C(=O)[C@H](CC[C@H]2O)NC1=O [Rivulariapeptolide 988, rivulariapeptolide 988] | 4.945 RFU/s |
| C/C=C1\NC(=O)[C@@H](NC(=O)[C@@H](NC(=O)[C@H](C)NC(=O)CCC)[C@@H](C)O)[C@@H](C)OC(=O)[C@H](C(C)C)NC(=O)[C@H](Cc2ccc(O)cc2)N(C)C(=O)[C@H](Cc2ccccc2)N2C(=O)[C@H](CC[C@H]2O)NC1=O [Molassamide, molassamide] | 5.023 RFU/s |
| C/C=C1\NC(=O)[C@@H](NC(=O)[C@@H](NC(=O)[C@H](C)NC(=O)CCC)[C@@H](C)O)[C@@H](C)OC(=O)[C@H](C(C)C)NC(=O)[C@H](Cc2ccc(O)c(Br)c2)N(C)C(=O)[C@H](Cc2ccccc2)N2C(=O)[C@H](CC[C@H]2O)NC1=O [Molassamide B, molassamide B] | 5.061 RFU/s |

Query: Given the compound CCCC(=O)N1CCCC1C(=O)NC(C(=O)NC1C(=O)NC(CC(C)C)C(=O)NC2CCC(O)N(C2=O)C(Cc2ccccc2)C(=O)N(C)C(Cc2ccc(O)cc2)C(=O)NC(C(C)C)C(=O)OC1C)C(C)OC(=O)C1CCCN1C(=O)CCC (stereo not shown) [Rivulariapeptolide 1185, rivulariapeptolide 1185] , write its reported Mean (RFU/s).
Response: 5.119 RFU/s
